All values here come from paper PMC6077758.

I'd appreciate it if you could supply pIC50 values for the items below.
- tested on: Cx30 (Homo sapiens)
- Sequence (O95452 whole entry): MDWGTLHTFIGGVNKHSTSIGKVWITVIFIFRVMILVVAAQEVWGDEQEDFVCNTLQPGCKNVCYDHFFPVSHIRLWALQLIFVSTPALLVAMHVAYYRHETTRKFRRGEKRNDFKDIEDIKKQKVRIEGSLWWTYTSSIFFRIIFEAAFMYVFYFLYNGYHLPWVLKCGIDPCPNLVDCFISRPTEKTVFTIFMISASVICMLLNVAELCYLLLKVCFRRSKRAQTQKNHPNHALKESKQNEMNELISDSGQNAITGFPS
- test protocol: I-YFP GJIC assay, LN215-Cx30 cells
- test context: 10 min treatment, best fit value ± standard error; read-out: IC50 for inhibition of Cx30-GJIC
Answers are plain numbers, as −log10 of the molar value.

molecule	property measured	measured
CC1(C)[C@@H](OC(=O)CCC(=O)O)CC[C@]2(C)[C@H]3C(=O)C=C4[C@@H]5C[C@@](C)(C(=O)O)CC[C@]5(C)CC[C@@]4(C)[C@]3(C)CC[C@@H]12 [CBX, carbenoxolone, reference compound]	pIC50	3.13

// next entry
Data request: I'd like to know its pIC50. The molecule in question is CC(C)=CCCC1(C)C=Cc2c(O)c3c(c(CC=C(C)C)c2O1)OC12C(=CC4CC1C(C)(C)OC2(C/C=C(/C)C(=O)O)C4O)C3=O [D-GA, dihydrogambogic acid]
Data returned: 4.09

====

I'd appreciate it if you could supply pIC50 values for the items below.
- tested on: Cx43 (Homo sapiens)
- Sequence (P17302 2-382 limits assumed): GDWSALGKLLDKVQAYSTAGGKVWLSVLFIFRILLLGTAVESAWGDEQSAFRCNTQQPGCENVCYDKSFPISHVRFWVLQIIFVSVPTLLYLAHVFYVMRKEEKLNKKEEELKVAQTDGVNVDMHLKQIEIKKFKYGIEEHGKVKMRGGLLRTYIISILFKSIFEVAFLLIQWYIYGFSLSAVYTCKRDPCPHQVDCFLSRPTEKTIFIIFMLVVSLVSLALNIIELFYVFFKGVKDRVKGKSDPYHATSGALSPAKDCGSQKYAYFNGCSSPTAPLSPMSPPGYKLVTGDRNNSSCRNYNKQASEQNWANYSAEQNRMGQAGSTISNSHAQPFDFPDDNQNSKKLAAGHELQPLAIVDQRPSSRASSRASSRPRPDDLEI
- test protocol: I-YFP GJIC assay, LN215-Cx43 cells
- test context: 10 min treatment, best fit value ± standard error; read-out: IC50 for inhibition of Cx43-GJIC
Answers are plain numbers, as −log10 of the molar value.

molecule	pIC50
CC1(C)[C@@H](OC(=O)CCC(=O)O)CC[C@]2(C)[C@H]3C(=O)C=C4[C@@H]5C[C@@](C)(C(=O)O)CC[C@]5(C)CC[C@@]4(C)[C@]3(C)CC[C@@H]12 [CBX, carbenoxolone, reference compound]	5.25

// next entry
Data request: I'd like to know its pIC50. The molecule in question is CC(C)=CCCC1(C)C=Cc2c(O)c3c(c(CC=C(C)C)c2O1)OC12C(=CC4CC1C(C)(C)OC2(C/C=C(/C)C(=O)O)C4O)C3=O [D-GA, dihydrogambogic acid]
Data returned: 4.88
